Let's go through some AC50 measurements on Sodium-dependent dopamine transporter (Homo sapiens, UniProt Q01959) together.
Sequence (Q01959 whole entry): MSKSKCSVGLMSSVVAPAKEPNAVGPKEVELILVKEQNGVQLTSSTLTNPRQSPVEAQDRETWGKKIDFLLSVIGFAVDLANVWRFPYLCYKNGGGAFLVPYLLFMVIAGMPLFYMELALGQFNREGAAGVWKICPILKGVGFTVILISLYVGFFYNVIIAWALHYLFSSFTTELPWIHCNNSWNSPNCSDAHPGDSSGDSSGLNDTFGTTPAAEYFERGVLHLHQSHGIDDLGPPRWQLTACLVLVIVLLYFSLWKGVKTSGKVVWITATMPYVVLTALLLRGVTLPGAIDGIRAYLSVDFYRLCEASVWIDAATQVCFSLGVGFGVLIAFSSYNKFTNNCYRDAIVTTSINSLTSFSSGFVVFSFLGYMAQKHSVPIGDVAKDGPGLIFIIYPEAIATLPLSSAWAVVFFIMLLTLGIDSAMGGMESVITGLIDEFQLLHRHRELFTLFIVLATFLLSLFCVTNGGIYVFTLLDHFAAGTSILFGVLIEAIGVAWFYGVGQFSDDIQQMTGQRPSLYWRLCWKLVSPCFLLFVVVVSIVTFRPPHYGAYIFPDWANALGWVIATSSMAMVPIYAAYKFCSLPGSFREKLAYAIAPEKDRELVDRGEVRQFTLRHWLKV

Molecule: CC(C)/N=c1\cc2n(-c3ccc(Cl)cc3)c3ccccc3nc-2cc1Nc1ccc(Cl)cc1
AC50: > 30 µM

Molecule: CCCO[C@H]1[C@@H]([C@@H](COCc2ccc(Cl)cc2)OCc2ccc(Cl)cc2)OC(OCC)[C@@H]1O (stereo partly drawn) [CLOBENOSIDE]
AC50: > 30 µM

Molecule: CN(Cc1ccc(C(C)(C)C)cc1)Cc1cccc2ccccc12
AC50: > 10 µM

Molecule: O=C(O[C@H]1C[N+]2(CCCOc3ccccc3)CCC1CC2)C(O)(c1cccs1)c1cccs1 [ACLIDINIUM BROMIDE]
AC50: > 10 µM

Molecule: N=C(N)NC(=O)Cc1c(Cl)cccc1Cl
AC50: > 30 µM

Molecule: CCC[C@@]1(CCc2ccccc2)CC(O)=C([C@H](CC)c2cccc(NS(=O)(=O)c3ccc(C(F)(F)F)cn3)c2)C(=O)O1
AC50: 27 µM

Molecule: CN(C)CCOC(=O)C(c1ccccc1)C1(O)CCCC1 (stereo not drawn) [CYCLOPENTOLATE]
AC50: > 30 µM

Molecule: C[C@@H](O)[C@H]1C(=O)N2C(C(=O)O)=C(SCCN=CN)C[C@H]12 [IMIPENEM ANHYDROUS]
AC50: > 300 µM
